- Test system: PPARg:RXRa 90nM:30nM, anti-RXR (NR concentration 90 nM, RXRa partner concentration 30 nM)
- assay comment: PBM binding z-score (relative to random genomic background probes); higher = stronger binding; sequences stand for … in GC…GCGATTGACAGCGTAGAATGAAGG
true means recorded PBM binding z-score is 0.5 or above; false means it is below 0.5.

CAAACTAGGTCACAGGTCAAAGTCGAGCCAACCA :: true
TCTACTTGGTCAAAGGTCACACACTCGAAATGCG :: true
CCTACTGGGCGAAAAAGGTCATTGATGCCGATAA :: true
AGCTCTAGGTAACCAAGTTCAGTGAATGCCGAAC :: false

Can ATCGAAAGGTCGACGAGGTGAGTATACACCGTTT be said to have PBM binding z-score at or above 0.5?
true

Can TCTTGTAGATCAAAGGTGAAGAAAGCCGAAGCCT be said to have PBM binding z-score at or above 0.5?
true

Can TCTTATAGATCAAGCAGGTTAAGAAAGCCTGAGT be said to have PBM binding z-score at or above 0.5?
true

====

- Test system: PPARa:RXRa (NR concentration 270 nM, RXRa partner concentration 90 nM)
- assay comment: PBM binding z-score (relative to random genomic background probes); higher = stronger binding; sequences stand for … in GC…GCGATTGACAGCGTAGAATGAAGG
reported metric: PBM binding z-score
Give only the figure.

sequence TTGAGTAGGTTACCAATGGGGCATTCAGCTTTCT , PBM binding z-score observed: 1.36

sequence GCTATTAGTTGAAAGTGCAACCGAATGATTCTCG , PBM binding z-score observed: 1.33

sequence TAGCGTAGGTCATTCAGGGGCCAGTATAGAAAGC , PBM binding z-score observed: 4.19

sequence CCTACTGGGCCACGAACGGTCATTGATTCAGTGA , PBM binding z-score observed: 0.858

sequence CCGACTGGGGCAAACGTTACCATACTCAGTACGA , PBM binding z-score observed: 1.61

sequence CCTACTGCGCCATTCAGAGGTCATTGATCATATG , PBM binding z-score observed: 3.8

sequence AGTCAAAGTTAATCTAGGTAACGTAAGATATGCT , PBM binding z-score observed: 1.29

sequence TCGAGTAGGTTACCAATGGGACATTCAGCTTTCT , PBM binding z-score observed: 0.841

sequence TCTATTAGTTGCTTAGGGCAACCGAAACAGCGGA , PBM binding z-score observed: 0.886

====

- Tested on: PXR:RXRa (NR concentration 270 nM, RXRa partner concentration 90 nM)
- assay comment: PBM binding z-score (relative to random genomic background probes); higher = stronger binding; sequences stand for … in GC…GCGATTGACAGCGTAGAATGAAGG
Each item that follows carries a reported PBM binding z-score.

Past entries and their recorded results:
ACTTACGGTTCAACGAGGTTATAGCACGCGTATA :: 4.06
ACTATTAGTTGAGACGAGGGCAACCAATAGGTTG :: 1.75
GCTGCTCGGTCAGGTTGGTCAGCTAACGGGTACG :: -0.721
ATCTCTAGGTAAGACTCAGTTCAATGAAGAACGC :: 2.1
CCTAGTTGGTCAGTAGGTCACACACCGGATATGA :: 1.68

sequence CAAACTCGGTCAAGGTCAAAGTCGGTTTGTGCCA , PBM binding z-score observed: 4.98

sequence ACAGACAGGTGAGTGAGGGTAACTCAGCTGGACG , PBM binding z-score observed: -0.025

sequence TCGAGTAGGTTAGTCGGGGCATTCGGCCAACATA , PBM binding z-score observed: 0.113

sequence TCTTGTAGCTCAACAGGAGGTTAAGAAAGATCGA , PBM binding z-score observed: 0.474

sequence TTACCAAGGTGATGGTCGTTGATCCCTCTGTAGA , PBM binding z-score observed: -0.171

sequence CGTCCAAGGTCAGAGAGGTCGGTGAATGCCGAGT , PBM binding z-score observed: 3.88

sequence CGTCCAATGTCAATGCTAGGTCAGTGAAAGCATT , PBM binding z-score observed: 0.655

sequence CCTACTGGGCCACAGGTCATTGATTCCAATGCTC , PBM binding z-score observed: 1.75

sequence TCATATAGGGAAAAGGTGAAAGTCGGTGTGGTAA , PBM binding z-score observed: 1.21

sequence AGAATGAGGTTACCAAAGATCAAGGAAACGCTTG , PBM binding z-score observed: 2.06

sequence GGAACGAGGGCATTCGAGTTGATAGTATGGCGAT , PBM binding z-score observed: 4.11

sequence TTACCAAGGTGAAGCTCGTTGATCCCTCTGTAGA , PBM binding z-score observed: -0.27

sequence ACTATTATTTGAGACGAGGGCAACCGATAGGTTG , PBM binding z-score observed: 0.944

sequence CCTTCTAGGTCAATGGTCAGCTAAAGCAGCTCGC , PBM binding z-score observed: 0.931

sequence TCTGCTAGGTCAGTTGGTCAGCTAACGAGCTGCC , PBM binding z-score observed: 0.0781

sequence TAGCCTAGGTCATGGGCAAGTATACCACGCGAAC , PBM binding z-score observed: 1.51

sequence CCTTACGGGTCAAGGTTATAGAACGGGTGGTACG , PBM binding z-score observed: 3.27

sequence TAAATGAGGTTATAAGATCAGGGAACGTTGCAAA , PBM binding z-score observed: 1

sequence CAAACTAGGTCACCGGACGGTCAAAGTCCGCATG , PBM binding z-score observed: 2.54

====

- System: FXR:RXRa (NR concentration 270 nM, RXRa partner concentration 90 nM)
- assay comment: PBM binding z-score (relative to random genomic background probes); higher = stronger binding; sequences stand for … in GC…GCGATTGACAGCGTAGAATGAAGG
reported metric: PBM binding z-score
Give only the figure.

Past entries and their recorded results:
GCATATAGGTAATACAAGGCGAAAGTCCGATTGT :: 0.229
CCTACTGGGCCAAAGGTCATTAATTCCAATGCTC :: 4.33
CGTCCAAGGTCAGCAGGTCAGTGATAGCGACGTG :: 5.6

sequence ACTATTAGTTGACTTAGGGCAATCGATACGACGC , PBM binding z-score observed: 0.199

sequence CATACAGGGTCAGCTATGCCAGAGTAGGGACGGC , PBM binding z-score observed: 4.14

sequence CAAACTAGGTCAGGAGGTCAAAGTCCGCTTCCCG , PBM binding z-score observed: 5.51

sequence CAACCTAGGTCAAGGTCAAAGTCGGTTTGTGCCA , PBM binding z-score observed: 6.38

sequence CAGCCTAGGTTAGGGCCAGTATAGGAGGAACGTT , PBM binding z-score observed: -0.436

sequence TCTAGTTGGTCAAAGGTCACACACTCGAAATGCG , PBM binding z-score observed: 6.09

sequence CCTCCTGGGCCAAGGTCATTGATCAGTCAAAGCA , PBM binding z-score observed: 2.96

sequence CGTCCAAGGTCAATGCTACGTCAGTGAAAGCATT , PBM binding z-score observed: 6.6

sequence CCTACTGGGCCACGAAAGGTCACTGATTCAGTGA , PBM binding z-score observed: 2.97

====

- System: LXRa homodimer (NR concentration 270 nM)
- assay comment: PBM binding z-score (relative to random genomic background probes); higher = stronger binding; sequences stand for … in GC…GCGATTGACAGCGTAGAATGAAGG
Each item that follows carries a reported PBM binding z-score.
Give only the figure.

Past entries and their recorded results:
CCAGACAGGTGAAACGTAACTCAGTCTGGTACGC :: -0.351
TTACCAAGGTGGAAGGTCGTTGATGCACGCCTTG :: -0.194
TCTAGCAGGCCAGAGGGTCACTCCAGAGGTACGG :: -0.544
CGTCCAAGGTCATAGGAGGTCAGGGAAGACAGAT :: 5.15
CGAACTAGGTCAGAACAGGACACTGAAGGATGAT :: 0.372
ACTAGTTGGTCAGCTGAGGTCACACATAATTCGG :: 2.03

Consider the record given below.
sequence CCTAGCAGGCCAATCTGGGTCTCTCAAGGCTTGA , PBM binding z-score observed: -0.738

====

- Tested on: PPARg:RXRa 270nM:90nM, anti-RXR (NR concentration 270 nM, RXRa partner concentration 90 nM)
- assay comment: PBM binding z-score (relative to random genomic background probes); higher = stronger binding; sequences stand for … in GC…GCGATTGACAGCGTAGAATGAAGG
yes means recorded PBM binding z-score is 2 or above; no means it is below 2.

Use these answered entries as a reference point.
AGAATGAGGTTATTAAGATCAGGGAGTTGCGGTC :: yes
TCTTGTAGATCAAAGGTTTAGAAAGCCGAAGCCT :: yes
CTACCAAGGTGAGCAAGGTCGTTGATTACTATTC :: no

Can CGAACGAGGGTATGAGTTGATAGCAAATGCCGAT be said to have PBM binding z-score at or above 2?
no

Can AGAACGAGGGAAATGAGTTGATAGCACGGGTGGC be said to have PBM binding z-score at or above 2?
no

Can AGAACGAGGGCACGCTGAGTTGATAGTAGAGTAG be said to have PBM binding z-score at or above 2?
no

Can CGTCCAAGGTCAATCCTAGGTCAGTGAAAGCATT be said to have PBM binding z-score at or above 2?
yes

Can CAAACTAGGTCAAGGTCAAAATCGGTTTGTGCCA be said to have PBM binding z-score at or above 2?
yes
